The reported numbers originate from patent US8461328B2.

- Target: JAK1 (Homo sapiens, UniProt P23458)
- Construct: made in house; host or cells: SF9 insect cells (baculovirus)
- Sequence (P23458 852-1154): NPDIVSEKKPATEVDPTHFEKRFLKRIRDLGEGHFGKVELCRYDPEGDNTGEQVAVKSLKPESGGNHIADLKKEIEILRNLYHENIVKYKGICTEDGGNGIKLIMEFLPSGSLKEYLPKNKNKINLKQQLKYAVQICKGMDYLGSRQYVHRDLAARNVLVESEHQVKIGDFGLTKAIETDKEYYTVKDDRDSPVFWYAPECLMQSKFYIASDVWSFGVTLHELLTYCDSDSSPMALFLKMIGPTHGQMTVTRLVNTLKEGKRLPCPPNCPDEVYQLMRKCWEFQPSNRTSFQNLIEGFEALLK
- Run Description: JAK1 inhibition (Table 4)
- Format: biochemical
- Condition Info: read-out: JAK1 Ki
The following compounds are listed with their measured Ki values.
Kindly provide the numeric value in nM only, without the unit symbol.

Example compounds with recorded Ki:
1. CCC(COC)n1c(C(C)O)nc2cnc3[nH]ccc3c21 (single isomer, unassigned) [Example 182]; 167
2. CC(C)c1nc2cnc3[nH]ccc3c2n1C1CCN(CCC#N)CC1 [Example 281]; 7.49
3. CN1CCCC(C(=O)N2CCC(n3cnc4cnc5[nH]ccc5c43)CC2)C1 (single isomer, unassigned) [Example 454]; 547
4. c1ncc(CN2CCC[C@@H](n3cnc4cnc5[nH]ccc5c43)C2)cn1 [Example 42]; 14.9
5. NC1CCCC(n2cnc3cnc4[nH]ccc4c32)C1 (single isomer, unassigned) [Example 365]; 24.1
6. CC(=O)NC1CCCC(n2cnc3cnc4[nH]ccc4c32)C1 (single isomer, unassigned) [Example 478]; 83.3
7. OC1CCCC(n2nnc3cnc4[nH]ccc4c32)C1 (single isomer, unassigned) [Example 551]; 13.5

Next up:
Which measured Ki value corresponds to O=C(C1CCC1)N1CCC[C@@H](n2cnc3cnc4[nH]ccc4c32)C1 [Example 315] ?
5.7
